- Test Target: UniProt:Q9UKE5
- Sequence (Q9UKE5 whole entry, looked up): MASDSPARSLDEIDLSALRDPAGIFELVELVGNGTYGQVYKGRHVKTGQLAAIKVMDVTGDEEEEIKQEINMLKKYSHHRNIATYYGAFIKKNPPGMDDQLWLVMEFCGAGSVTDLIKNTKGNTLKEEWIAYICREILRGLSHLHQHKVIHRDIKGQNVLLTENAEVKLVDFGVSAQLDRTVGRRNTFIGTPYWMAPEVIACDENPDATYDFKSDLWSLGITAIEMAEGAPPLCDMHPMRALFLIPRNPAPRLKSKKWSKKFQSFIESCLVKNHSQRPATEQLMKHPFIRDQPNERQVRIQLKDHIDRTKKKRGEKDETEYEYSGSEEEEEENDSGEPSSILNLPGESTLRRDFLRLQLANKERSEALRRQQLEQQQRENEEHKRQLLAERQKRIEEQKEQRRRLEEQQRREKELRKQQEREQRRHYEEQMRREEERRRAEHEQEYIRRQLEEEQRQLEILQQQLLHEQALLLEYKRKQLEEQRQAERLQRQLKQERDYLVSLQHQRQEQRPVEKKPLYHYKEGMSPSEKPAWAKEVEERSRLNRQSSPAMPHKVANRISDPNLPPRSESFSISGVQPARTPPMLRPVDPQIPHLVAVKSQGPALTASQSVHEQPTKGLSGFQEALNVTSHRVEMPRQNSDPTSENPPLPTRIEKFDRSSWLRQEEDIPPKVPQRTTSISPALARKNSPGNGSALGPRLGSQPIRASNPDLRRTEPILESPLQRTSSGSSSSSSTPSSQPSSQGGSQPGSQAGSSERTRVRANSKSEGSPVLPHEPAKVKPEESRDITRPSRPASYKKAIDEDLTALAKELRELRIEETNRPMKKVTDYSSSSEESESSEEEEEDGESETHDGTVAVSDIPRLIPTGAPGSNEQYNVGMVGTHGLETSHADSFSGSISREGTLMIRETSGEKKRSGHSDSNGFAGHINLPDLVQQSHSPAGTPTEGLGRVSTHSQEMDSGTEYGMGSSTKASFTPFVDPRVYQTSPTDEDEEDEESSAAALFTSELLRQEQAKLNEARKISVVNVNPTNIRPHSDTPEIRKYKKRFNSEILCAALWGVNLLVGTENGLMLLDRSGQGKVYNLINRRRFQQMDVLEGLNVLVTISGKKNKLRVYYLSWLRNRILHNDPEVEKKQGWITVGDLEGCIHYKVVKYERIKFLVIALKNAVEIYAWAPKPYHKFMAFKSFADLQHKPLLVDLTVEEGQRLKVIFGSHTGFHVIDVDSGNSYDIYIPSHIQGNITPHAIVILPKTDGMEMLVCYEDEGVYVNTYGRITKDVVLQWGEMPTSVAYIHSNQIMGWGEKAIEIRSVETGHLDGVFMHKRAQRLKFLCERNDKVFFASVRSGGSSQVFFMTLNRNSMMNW
- Assay Overview: KINOMEscan competition binding
- Condition Description: compound 10.0 µM
Measured Quantity: kinase still bound, per cent of control (%)
Hi! Could you send only the number? It should be in %, unit omitted.

Request: kinase still bound, per cent of control lookup needed for CNC(=O)Nc1ccc(-c2nc(N3CC4CCC(C3)O4)c3cnn(C4CCC5(CC4)OCCO5)c3n2)cc1 , thanks.
Result: 100

Request: kinase still bound, per cent of control lookup needed for COc1ccc(N(C(=O)Oc2cc(C(=O)Nc3cccc(C(F)(F)F)c3)ccc2C)c2ccnc(Nc3ccc(N4CCN(C)CC4)cc3)n2)c(OC)c1 , thanks.
Result: 12

Request: kinase still bound, per cent of control lookup needed for CC(=O)c1c(C)c2cnc(Nc3ccc(N4CCNCC4)cn3)nc2n(C2CCCC2)c1=O , thanks.
Result: 23

Request: kinase still bound, per cent of control lookup needed for C=CC(=O)Nc1ccc(C(=O)c2sc(Nc3ccc(N4CCN(C)CC4)cc3OC)nc2N)cc1 , thanks.
Result: 6

Request: kinase still bound, per cent of control lookup needed for N#Cc1cc(-c2ccnc(Nc3ccc(-n4cnc(-c5cccnc5)n4)cc3)n2)cc(N2CCOCC2)c1 , thanks.
Result: 26

Request: kinase still bound, per cent of control lookup needed for CCN(CCO)CCCOc1ccc2c(Nc3cc(CC(=O)Nc4cccc(F)c4)[nH]n3)ncnc2c1 , thanks.
Result: 52

Request: kinase still bound, per cent of control lookup needed for CCc1nc(-c2cccc(C)c2)c(-c2ccnc(NC(=O)c3ccccc3)c2)s1 , thanks.
Result: 5.5

Request: kinase still bound, per cent of control lookup needed for COc1cc2ncnc(Nc3cccc(Cl)c3)c2cc1OC , thanks.
Result: 26

Request: kinase still bound, per cent of control lookup needed for N#C/C(=C1/Nc2ccccc2S1)c1ccnc(NCCc2cccnc2)n1 , thanks.
Result: 70

Request: kinase still bound, per cent of control lookup needed for CCOc1cc(N2CCC(O)CC2)ccc1Nc1ncc2c(n1)N(C)c1ccccc1C(=O)N2C , thanks.
Result: 100

Request: kinase still bound, per cent of control lookup needed for COc1cc(C)c(Sc2cnc(NC(=O)c3ccc(CNC(C)C(C)C)cc3)s2)cc1C(=O)N1CCN(C(C)=O)CC1 (stereo not drawn) , thanks.
Result: 100

Request: kinase still bound, per cent of control lookup needed for CCN1CCN(Cc2ccc(NC(=O)c3ccc(C)c(/C=C/c4cnc5[nH]ccc5c4OC)c3)cc2C(F)(F)F)CC1 , thanks.
Result: 3.2

Request: kinase still bound, per cent of control lookup needed for Cc1cn(-c2cc(C(=O)Nc3ccc(C)c(NC(=O)c4ccno4)c3)cc(C(F)(F)F)c2)cn1 , thanks.
Result: 100

Request: kinase still bound, per cent of control lookup needed for COc1cc2c(Nc3ccc(NC(=O)c4ccccc4)cc3)ncnc2cc1OCCCN1CCOCC1 , thanks.
Result: 51

Request: kinase still bound, per cent of control lookup needed for COc1cc(N2CCC(C(N)=O)CC2)ccc1Nc1nc(N)c(Cl)c(Nc2ccccc2S(=O)(=O)C(C)C)n1 , thanks.
Result: 100

Request: kinase still bound, per cent of control lookup needed for CCCS(=O)(=O)Nc1ccc(F)c(C(=O)c2c[nH]c3ncc(Cl)cc23)c1F , thanks.
Result: 24

Request: kinase still bound, per cent of control lookup needed for O=c1[nH]c2ccccc2n1C1CCN(Cc2ccc(-c3nc4cc5[nH]cnc5cc4nc3-c3ccccc3)cc2)CC1 , thanks.
Result: 97

Request: kinase still bound, per cent of control lookup needed for CC1=C(C(=O)Nc2cc3cn[nH]c3cc2F)C(c2ccc(C(F)(F)F)cc2)CC(=O)N1 (stereo not drawn) , thanks.
Result: 100
